Please respond with reported abundance fitness for every item in the list.
B1: Cyclin-F, residues 28 to 80; numbered along this chain, P41002 (parent)
chain: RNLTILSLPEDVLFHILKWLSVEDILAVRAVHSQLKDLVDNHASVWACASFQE

Variants of: B1
Assay: abundance fitness (aPCA) (normalised: wild type 0, dead -1); higher = more abundant; growth selection in yeast, the domain comes from the species named
Settings: Homo sapiens
Give only the figure.

Problem: May I ask what abundance fitness has been recorded for Q34C ?
Solution: -0.248

Problem: Look up abundance fitness: F51I
Solution: -0.111

Problem: Quick check: abundance fitness of L8A ?
Solution: -0.509
